Listing of entries alongside the reported polymerase ribozyme fitness (log ratio).
B1: TPR 5TU (parent)
chain: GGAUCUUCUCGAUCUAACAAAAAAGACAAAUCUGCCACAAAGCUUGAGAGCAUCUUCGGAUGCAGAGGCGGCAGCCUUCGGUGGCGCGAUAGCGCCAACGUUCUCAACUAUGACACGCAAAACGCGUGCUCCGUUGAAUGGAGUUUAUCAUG

- Variants of: B1
- assay-procedure: polymerase ribozyme fitness, log enrichment relative to wild type (log ratio); higher = more active; in vitro selection for triplet polymerase activity
Variants at the floor of the assay were thinned out.

Below: 5 variants and their reported polymerase ribozyme fitness (log ratio).
{"columns": ["mutant-name", "outcome-measure", "result"],
 "data": [
  ["A28C G58C", "polymerase ribozyme fitness (log ratio)", "≤ -4.2"],
  ["G136U G143C", "polymerase ribozyme fitness (log ratio)", -3.26],
  ["A47U A97C", "polymerase ribozyme fitness (log ratio)", 0.501],
  ["C125U U148G", "polymerase ribozyme fitness (log ratio)", "≤ -4.2"],
  ["C54U C75U G84C A98U A113G C129U", "polymerase ribozyme fitness (log ratio)", "≤ -4.2"]
]}

We now examine a further variant.
Q. Entry C8A U44C C79G G86C G140U : reported polymerase ribozyme fitness (log ratio) = ?
A. ≤ -4.2
